Test system: EKVX NSCLC
Assay: NCI-60 one-dose screen, 48 h
Details: 10 µM unless noted
This is part of a sample that, as a whole, favours compounds with a hit. Of some 83,000 tested, about 20% had one in any assay. Active and inactive are the calls of the source. Rule for the calls: active = growth percent below 10; inactive = the rest.
Lab note: assign the record to one of active, inactive

Query :: Recorded call for O=C1C(=O)c2c(nc3ccc(Cl)cn23)-c2ccccc21 ?
Result :: active

Query :: Next compound up: COc1ccc(CNC(=O)c2c(C)n([O-])c3ccccc3[n+]2=O)cc1
Result :: inactive

Query :: Next compound up: Oc1c(Cl)cc(Cl)c(Cl)c1Cc1c(O)c(Cl)cc(Cl)c1Cl
Result :: active

Query :: Next compound up: Cc1cc2ccccn2c1C(=O)c1ccc(C(=O)c2ccccc2)cc1
Result :: inactive

Query :: Next compound up: Cc1cc(C(=O)Nc2ccc3cc(CN4CCOCC4)ccc3n2)c(C)n1-c1ccccc1
Result :: inactive

Query :: Next compound up: Cn1ccnc1C(=O)/C=C/c1ccc(C(=O)Nc2nc3ccccc3[nH]2)cc1
Result :: inactive

Query :: Next compound up: Cc1ccc(-c2cc(-c3ccccc3)n(-c3ccccc3)n2)cc1
Result :: inactive

Query :: Next compound up: N#Cc1c(-c2ccccc2)cc(-c2ccccc2)n(CCC(=O)O)c1=O
Result :: inactive

Query :: Next compound up: CCC(=O)Nc1cc2c(cc1Cl)-c1ccccc1C2
Result :: inactive

Query :: Next compound up: COc1cc(C2CC(C3C(=O)N(C)C(=O)N(C)C3=O)=NN2c2cc(Cl)cc(Cl)c2)cc(OC)c1OC (stereo not drawn)
Result :: inactive

Query :: Next compound up: COC(=O)c1c(NC(=O)CSc2nnnn2-c2ccc(OC)cc2)sc(C)c1C
Result :: inactive

Query :: Next compound up: O=C1C=CC(=O)N1c1ccccc1N1C(=O)C=CC1=O
Result :: inactive

Query :: Next compound up: COC(=O)C1CCN(S(=O)(=O)c2ccc(-c3ccccc3)cc2)CC1
Result :: inactive

Query :: Next compound up: O=C(/C=C/c1ccc(C(F)(F)F)cc1)c1ccc(Nc2nc(NCCO)nc(NCCO)n2)cc1
Result :: inactive

Query :: Next compound up: Cn1cnc([N+](=O)[O-])c1Sc1nc(N)nc2nc[nH]c12
Result :: inactive

Query :: Next compound up: CN(C)c1ncnc2c1ncn2C1CCCCO1 (stereo not drawn)
Result :: inactive

Query :: Next compound up: Cc1sc2nc3c4ccccc4c(NCCCN(C)C)nn3c(=O)c2c1C
Result :: inactive

Query :: Next compound up: CNCCCn1c2c(c3ccc(F)cc3c1=O)C(=O)c1cc(OC)cnc1-2
Result :: active

Query :: Next compound up: O=C(c1ccc(Cl)cc1)c1ccc(Cl)cc1
Result :: inactive

Query :: Next compound up: OC(c1cc(-c2cccc(Cl)c2)nc2ccccc12)C1CCCCN1 (stereo not drawn)
Result :: inactive

Query :: Next compound up: CC(=O)Nc1ccc(C(=O)COc2ccc(/C=C3\CCc4ccccc4C3=O)cc2)cc1
Result :: inactive

Query :: Next compound up: N=C1c2nc3n(c2C(=O)c2nc4n(c21)CCCCC4)CCCCC3
Result :: inactive

Query :: Next compound up: O=C(O)CCC(=O)OC[C@@H](NC(=O)C(Cl)Cl)[C@H](O)c1ccc([N+](=O)[O-])cc1
Result :: inactive

Query :: Next compound up: CCN(Cc1cccc(S(=O)(=O)[O-])c1)c1ccc(C(=C2C=CC(=[N+](CC)Cc3cccc(S(=O)(=O)O)c3)C=C2)c2ccccc2S(=O)(=O)O)cc1
Result :: inactive

Query :: Next compound up: CCOC(=O)CCC(=O)O[C@H]1[C@H](O[C@@H]2[C@@H](C)[C@H](O[C@H]3C[C@@](C)(OC)[C@@H](O)[C@H](C)O3)[C@@H](C)C(=O)O[C@H](CC)[C@@](C)(O)[C@H](O)[C@@H](C)C(=O)[C@H](C)C[C@@]2(C)O)O[C@H](C)C[C@@H]1N(C)C
Result :: inactive

Query :: Next compound up: O=C1NC(=S)S/C1=C\c1cc(Br)ccc1O
Result :: inactive

Query :: Next compound up: O=C1/C(=C\c2coc3ccccc3c2=O)c2ccccc2N1c1c(Cl)cccc1Cl
Result :: inactive

Query :: Next compound up: CC(=O)[C@H]1CC[C@H]2[C@@H]3C[C@H](C)C4=CC(=O)CC[C@]4(C)[C@H]3C(=O)C[C@]12C
Result :: inactive

Query :: Next compound up: O=C(CNC(=O)c1cccc2ccccc12)Nc1ccccc1Cc1ccccc1
Result :: inactive

Query :: Next compound up: O=C(CC(C(=O)c1ccccc1)N1CCN(Cc2ccccc2)CC1)c1ccccc1 (stereo not drawn)
Result :: inactive

Query :: Next compound up: O=C(Nc1nn2c(-c3cc(C(F)(F)F)cc(C(F)(F)F)c3)nnc2s1)C1CCCC1
Result :: inactive

Query :: Next compound up: COc1cc(/C=C2\CN(C)CC3=C2Nc2nc(SC)[nH]c(=O)c2C3c2cc(OC)c(OC)c(OC)c2)cc(OC)c1OC (stereo not drawn)
Result :: inactive

Query :: Next compound up: Cc1ccc(-c2csc(N)n2)cc1
Result :: inactive
